Consider the following compounds; for each one, report its Percentage inhibition of (+)-MK801 binding at 10 μM.
System: (+)-MK801 binding site of the ionotropic NMDA receptor
Assay: (3H)-(+)-MK801 receptor binding test on rat brain membrane homogenates
Conditions: 10 μmol/l compound; ligand (3H)-(+)-MK801; rat brain membrane homogenate; triplicate batches
Give bare numbers, in %.

Before answering, review these 3 worked examples.
• CN(C)CC1CCCC2c3cc(Cl)ccc3CCC12.Cl (stereo not drawn) [Compound 5] = 28
• COc1ccc2c(c1)C1CCCC(CN(C)C)C1CC2.Cl (stereo not drawn) [Compound 2] = 56
• CN(C)CC1CCCC2c3ccccc3CCC12.Cl (stereo not drawn) [Compound 1] = 46

State recorded Percentage inhibition of (+)-MK801 binding at 10 μM for all listed compounds.
1. CN(C)CC1CC(C(C)(C)C)CC2c3ccccc3CCC12.Cl (stereo not drawn) [Compound 6]
2. CN(C)CC1CCCC2c3cc(O)ccc3CCC12.Cl (stereo not drawn) [Compound 3]

1: 31; 2: 40

Item under review: CN(C)CC1CCCC2c3ccc(F)cc3CCC12.Cl (stereo not drawn) [Compound 4] . Reported Percentage inhibition of (+)-MK801 binding at 10 μM?
36
